- Test Summary: blocks MITF activity, primary screen, MITF inhibitor project, cell-based, luminescence (AID 2240);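 also: human melanocyte line stably carrying TRPM1 promoter luciferase reporter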
- Assay Conditions: TRPM1 promoter luciferase, 24 h, hits give high values, concentration not given here
The campaign covered roughly 37,000 compounds. About 100 (0.27%) were called active. The full list was thinned out, with actives kept by preference.
Endpoint Label: inhibition (%)
Give the number; % is assumed, so skip it.

*Q* Recall and state the measured inhibition for "COc1ccc2[nH]cc(CCNCc3ccc(Br)cc3)c2c1" .
*A* -13.8

*Q* Recall and state the measured inhibition for CCCN(C/C=C/I)C1CCc2ccc(O)cc2C1 (stereo not given) .
*A* -11.9

*Q* Recall and state the measured inhibition for "COC1=CC23CCN(C)[C@H](Cc4cc(OC)c(OC)cc42)C3=CC1=O" .
*A* 2.51

*Q* Recall and state the measured inhibition for "CN[C@@H]1C[C@H]2O[C@@](C)([C@@H]1OC)n1c3ccccc3c3c4c(c5c6ccccc6n2c5c31)C(=O)NC4" .
*A* 106

*Q* Recall and state the measured inhibition for "CCCCC/C=C\C/C=C\C/C=C\CCCCCCC(=O)NCCO" .
*A* -1.85

*Q* Recall and state the measured inhibition for C[C@H]1CCC/C=C/C2C[C@H](O)C[C@H]2[C@H](O)/C=C\C(=O)O1 (stereo not given in full) .
*A* 108

*Q* Recall and state the measured inhibition for CC=C1CN2C3CC1C1(C(=O)OC)C2CC2(c4ccccc4N(C)C32)C1O (stereo not given) .
*A* 4.01

*Q* Recall and state the measured inhibition for CC(C)c1c(CN(C)C(C)Cc2ccccc2)n(C)n(-c2ccccc2)c1=O (stereo not given) .
*A* 20.5

*Q* Recall and state the measured inhibition for "c1cncc(CNCCc2c[nH]c3ccccc23)c1" .
*A* 1.76

*Q* Recall and state the measured inhibition for "Cc1ncsc1CCCl" .
*A* -1.18
